Tested on: OVCAR-4 ovarian
Assay: NCI-60 one-dose screen, 48 h (100 = growth as untreated, 0 = no growth, -100 = all killed)
Conditions: 10 µM unless noted
Procedure: Growth inhibition of the OVCAR-4 human tumor cell line is measured as a screen for anti-cancer activity. Cells are grown in 96 well plates and exposed to the test compound for 48 hours. Compounds are tested at a single concentration, which is 10^-5 M for most compounds. The reported endpoint is percent growth (GI% or GIPRCNT), where numbers from 0 - 100% represent growth inhibition, and numbers from -100% - 0 represent cell death. For example, a value of 40 represents 60% growth inhibition. […]
The panel holds about 83,000 compounds, 20% with a hit somewhere; the sample as a whole holds those more often.
parameter.measured: growth (%)
Dear colleague, please return just the value in %, with no unit written.

Data request: Consider the compound shown here: CN(C)CCCNc1c2ccccc2nc2ccccc12 What is its recorded growth?
Data returned: 87.4

Data request: Consider the compound shown here: C(=N/Nc1ncc(-c2cc3cc(-c4ccccc4)ccc3o2)s1)/c1cccs1 What is its recorded growth?
Data returned: 89.6

Data request: Consider the compound shown here: O=S(=O)(Nc1ccc(NS(=O)(=O)c2ccccc2)c(Cl)c1)c1ccccc1 What is its recorded growth?
Data returned: 100

Data request: Consider the compound shown here: COc1ccc(C(=O)/C=C/c2cccnc2Nc2cc(OC)c(OC)c(OC)c2)cc1 What is its recorded growth?
Data returned: 39.8

Data request: Consider the compound shown here: CC1=C[C@H]2c3c(c(O)c(O)c4oc(-c5ccccc5)cc(=O)c34)[C@H](c3cc(O)c(O)c4oc(-c5ccccc5)cc(=O)c34)[C@H]2C(C)(C)C1 What is its recorded growth?
Data returned: 10.4

Data request: Consider the compound shown here: O=C(N/N=C/c1ccccc1O)c1ccccc1Nc1ccnc(C(F)(F)F)c1 What is its recorded growth?
Data returned: 22.4

Data request: Consider the compound shown here: O=C(Cc1ccc(/C=C/C(=O)c2ncc[nH]2)cc1)Nc1ccccc1 What is its recorded growth?
Data returned: 68.2

Data request: Consider the compound shown here: Cn1cc(-c2nonc2-c2cn(C)c3ccc(F)cc23)c2ccccc21 What is its recorded growth?
Data returned: 41.6

Data request: Consider the compound shown here: CN1CCN(c2nc(NCCCNc3ccnc4cc(Cl)ccc34)c3ccccc3n2)CC1 What is its recorded growth?
Data returned: 59.8

Data request: Consider the compound shown here: O=C(COc1cccc(/C=C2\COc3ccc(Cl)cc3C2=O)c1)c1ccc(Cl)cc1 What is its recorded growth?
Data returned: 90.5

Data request: Consider the compound shown here: CON1C(=O)CC[C@]2(C)[C@H]3CC[C@@H]4C([C@@]5(C)CCC(=O)O5)CC[C@@]4(C)[C@]3(C)CC[C@H]2C1(C)C (some centres undefined) What is its recorded growth?
Data returned: 92.8

Data request: Consider the compound shown here: Cn1cc(-c2nonc2-c2c[nH]c3ccc(F)cc23)c2cccnc21 What is its recorded growth?
Data returned: 71.3

Data request: Consider the compound shown here: C=C1c2nc3ccccc3n2C=C(c2cccc(Cl)c2)N1Cc1ccc(OC)cc1 What is its recorded growth?
Data returned: 32.4

Data request: Consider the compound shown here: NCCNc1nc(Nc2ccc(-c3nc4ccccc4[nH]3)cc2)c2cn[nH]c2n1 What is its recorded growth?
Data returned: 88.4

Data request: Consider the compound shown here: CCN1CCN(c2nc(NCCNc3ccnc4cc(Cl)ccc34)c3ccccc3n2)CC1 What is its recorded growth?
Data returned: 33.7

Data request: Consider the compound shown here: COc1ccc(S(=O)(=O)N2CC3(COC3)C2)cc1NC(=O)c1[nH]c(C)c2c1CCCCC2=O What is its recorded growth?
Data returned: 56.6

Data request: Consider the compound shown here: CC1=C[C@H]2c3c(c(O)c(O)c4oc5cc(O)ccc5c(=O)c34)[C@H](c3cc(O)c(O)c4oc5cc(O)ccc5c(=O)c34)[C@H]2C(C)(C)C1 What is its recorded growth?
Data returned: 56

Data request: Consider the compound shown here: Nc1nc2ncc(CCNc3ccc(C(=O)O)cc3)nc2c(=O)[nH]1 What is its recorded growth?
Data returned: 127

Data request: Consider the compound shown here: Cc1ccc(/C=C2\SC(=S)N(CC(=O)NCCCN3CCOCC3)C2=O)cc1 What is its recorded growth?
Data returned: 91.3
